tgt: Muscarinic acetylcholine receptor M4 (Homo sapiens)
test.method.notes: M4-linked GIRK flux change, two-sided – cell-based, HEK293 M4/GIRK, thallium flux, BTC-AM, M4 allosteric agonist project, primary screen (AID 625);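 further: thallium influx through GIRK channels coupled to M4 in HEK293 cells with BTC-AM dye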
condition.details: at 10 µM, actives lie on both sides
endpoint.label: fluorescence slope

molecule: O=C1CC(C(=O)Nc2ccccc2)C2(CCCC2)O1 (centres undefined)
tgt: Muscarinic acetylcholine receptor M4 (Homo sapiens)
endpoint.label: fluorescence slope
measurement: 0.00631
--
molecule: COc1ccccc1-c1cn[nH]c(=S)n1
tgt: Muscarinic acetylcholine receptor M4 (Homo sapiens)
endpoint.label: fluorescence slope
measurement: 0.00535
--
molecule: CCOC(=O)c1ccc(NC(=O)NC(C)C2CCCO2)cc1 (centres undefined)
tgt: Muscarinic acetylcholine receptor M4 (Homo sapiens)
endpoint.label: fluorescence slope
measurement: 0.00652
--
molecule: CCCS(=O)(=O)N1CCN(C(=O)CCC2CCCC2)CC1
tgt: Muscarinic acetylcholine receptor M4 (Homo sapiens)
endpoint.label: fluorescence slope
measurement: 0.00496

---

tgt: Muscarinic acetylcholine receptor M4 (Homo sapiens) (UniProt P08173)
Sequence (P08173 whole entry, looked up): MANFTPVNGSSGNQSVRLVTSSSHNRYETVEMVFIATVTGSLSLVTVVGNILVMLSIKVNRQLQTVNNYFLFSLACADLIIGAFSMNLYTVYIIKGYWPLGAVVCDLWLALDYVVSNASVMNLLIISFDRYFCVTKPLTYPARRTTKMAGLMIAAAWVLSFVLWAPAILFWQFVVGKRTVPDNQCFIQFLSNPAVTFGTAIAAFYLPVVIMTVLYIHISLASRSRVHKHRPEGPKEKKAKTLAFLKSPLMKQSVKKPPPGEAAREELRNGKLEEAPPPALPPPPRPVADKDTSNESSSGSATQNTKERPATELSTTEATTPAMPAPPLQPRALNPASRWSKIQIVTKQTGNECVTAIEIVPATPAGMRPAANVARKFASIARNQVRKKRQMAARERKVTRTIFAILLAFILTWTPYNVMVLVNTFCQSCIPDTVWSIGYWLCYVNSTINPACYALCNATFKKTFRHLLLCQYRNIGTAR
test.method.notes: M4-linked GIRK flux change, two-sided – cell-based, HEK293 M4/GIRK, thallium flux, BTC-AM, M4 allosteric agonist project, primary screen (AID 625);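 further: thallium influx through GIRK channels coupled to M4 in HEK293 cells with BTC-AM dye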
condition.details: at 10 µM, actives lie on both sides
Calls of active or inactive are those of the source.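 The calls were made as follows: active = fluorescence slope after compound addition differing from the mean of all tested samples at 99.7% confidence, mostly higher but some lower; inactive = the rest.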
endpoint.label: fluorescence slope

smiles: COc1cccc(N2CCN(c3c4c(nc5ncnn35)CCC4)CC2)c1
endpoint.label: fluorescence slope
measurement: 0.00591 (inactive)
//
smiles: CCOc1ncccc1C(=O)Nc1ccc2c(C)cc(=O)oc2c1
endpoint.label: fluorescence slope
measurement: 0.00712 (inactive)
//
smiles: O=C(COc1ccc(S(=O)(=O)N2CCCC2)cc1Cl)NC1CC1
endpoint.label: fluorescence slope
measurement: 0.007 (inactive)
//
smiles: O=C(O)CCC(=O)Nc1nc(-c2ccccc2)cs1
endpoint.label: fluorescence slope
measurement: 0.00599 (inactive)

---

test.method.notes: endothelial E-selectin expression blockers – imaging, HUVEC, immunofluorescence, MLSMR starter and 10KST1 sets, primary screen (AID 487);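 further: 100% = median nuclei count of all wells on the same plate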
condition.details: HUVEC TNFalpha-induced E-selectin immunofluorescence imaging, at 2 µM; measured here: cell number, toxicity
Entries annotated with measured nuclei count

compound: CCNC(=O)c1ccc(NS(=O)(=O)c2ccccc2)cc1
nuclei count (%): 102
//
compound: CCOC(=O)C1CCCN(Cc2nc(N)nc(Nc3ccccc3)n2)C1 (stereo unspecified)
nuclei count (%): 106
//
compound: CCOC(=O)C(OC(=O)c1sc(=S)n(C)c1C)C(C)=O (stereo unspecified)
nuclei count (%): 86.4
//
compound: Cn1c(NCc2cccc(Br)c2)nc2ccccc21
nuclei count (%): 139
//
compound: Cc1cc(C)cc(N2CCCn3c2nc2c3c(=O)n(CCN3CCOCC3)c(=O)n2C)c1
nuclei count (%): 103
//
compound: CCOC(=O)CSC1=Nc2ccccc2C2=NC(CC(=O)NCc3cccs3)C(=O)N12 (stereo unspecified)
nuclei count (%): 78.1
//
compound: c1ccc(Cn2nnnc2C(c2ccccn2)N2CCOCC2)cc1 (stereo unspecified)
nuclei count (%): 116
//
compound: COc1cccc(OC)c1C(=O)Nc1cccc(C(C)=O)c1
nuclei count (%): 104
//
compound: COc1cc(-c2nnc(SCC(=O)c3ccc(C)cc3)o2)cc(OC)c1OC
nuclei count (%): 83.6
//
compound: Cc1cc2c(nn1)CCC/C2=N\O
nuclei count (%): 110
//
compound: COc1cccc(N2CCN(c3ncnc4c3[nH]c3ccccc34)CC2C)c1 (stereo unspecified)
nuclei count (%): 102

From: PubChem BioAssay
